- Tested on: CCRF-CEM leukemia
- Test method notes: NCI tumour cell line growth inhibition, 48 h
Measured quantity: GI50

CN(C)CC1CCn2c(c(C3=C(c4cn(C)c5ccccc45)C(=O)NC3=O)c3ccccc32)C1 (configuration not stated) :: 6410 nM
O=C(Nc1ccc(Br)c(Cl)c1)c1cc(F)ccc1O :: 1430 nM
CC/C(=C(\CC)c1ccc(OCCN(CC)CC)cc1)c1ccc(OCCN(CC)CC)cc1 :: 2510 nM
CO[C@H]1CC[C@@]2(C)C(=CC[C@H]3[C@@H]4C[C@H](O)C[C@@]4(C)CC[C@@H]32)C1 :: 3050 nM
COc1cc(-c2nc3ccccc3s2)ccc1OCc1nc2n(n1)S(=O)(=O)c1ccccc1N2C :: > 100000 nM
COC(=O)c1c2c(c(C)[n+]([O-])c1C)C(=O)C(NCc1ccc(F)c(F)c1)=CC2=O :: 1720 nM

Moving on to another molecule below.
**Query** Item under review: `C/C(=C\c1c[nH]c2ccccc12)[N+](=O)[O-]` . Reported GI50?
**Result** 1620 nM

###

- Tested on: ACHN renal
- Test method notes: NCI tumour cell line growth inhibition, 48 h; in the data active means GI50 below about 0.43 µM; inactive means the rest
Respond using exactly one of the listed classes: active, inactive

See these solved cases before continuing.
C/C(=C\c1c[nH]c2ccccc12)[N+](=O)[O-] :: inactive
CO[C@H](C(=O)N[C@@H](CCCCNC(=O)OCc1ccccc1)C(=O)OC(C)(C)C)[C@@H]1Cc2cc3cc(OC4CC(OC5CC(O)C(O)C(C)O5)C(O)C(C)O4)c(C)c(O)c3c(O)c2C(=O)[C@H]1OC1CC(OC2CC(OC3CC(C)(O)C(O)C(C)O3)C(O)C(C)O2)C(O)C(C)O1 (stereo partly drawn) :: inactive

Continue with the molecule presented below.
**Query** Can you look up the reported call for `Nc1ccn([C@@H]2C=C(CO)[C@@H](O)[C@H]2O)c(=O)n1` for me?
**Result** active

###

- System: HCT-15 colon
- Test method notes: NCI tumour cell line growth inhibition, 48 h
Measured quantity: TGI

Some solved cases for reference:
CCNc1nc(N2CC(=O)Nc3cc(OC)ccc32)c2ccccc2n1 :: > 100 µM
O=C(CCCN1CC=C(n2c(=O)[nH]c3ccccc32)CC1)c1cccs1 :: > 100 µM
Nc1ccc(Oc2ccc(C3(c4ccc(Oc5ccc(N)c(O)c5)cc4)C4CC5C6CC7CC5C3C(C7)C6C4)cc2)cc1O :: 10.3 µM
CC(=O)Nc1ccc(/C=C/C(=O)c2sc(C(N)=S)nc2C)cc1 :: > 100 µM

Hi team, please reply with TGI for each item in this list.
1. Cc1ccc(S(=O)(=O)N/N=C(\C(=O)Nc2cccc([N+](=O)[O-])c2)c2nc3ccc([N+](=O)[O-])cc3[nH]c2=O)cc1
2. CC(Oc1ccc(Cl)cc1Cl)C(=O)NN1C(=O)CSC1c1ccc(Cl)cc1 (stereo unspecified)
3. CO[C@H]1CC[C@@]2(C)C(=CC[C@H]3[C@@H]4C[C@H](O)C[C@@]4(C)CC[C@@H]32)C1
4. CCOC(=O)c1c(-c2ccccc2)[nH]c2ccc(Cl)cc2c1=O
5. O=C(/C=C\Sc1nccc(C(F)(F)F)n1)c1ccc(Br)cc1
6. C/C(=C\COP(=O)(O)OP(=O)(O)O)CC/C=C(\C)CNc1ccc([N+](=O)[O-])cc1
7. O=c1[nH]c(=O)n(C2CC(O)C(CO)O2)c2nc3ccc4ccccc4c3nc12 (stereo unspecified)

**Result**
["> 100 µM", "> 100 µM", "23.2 µM", "> 100 µM", "70.6 µM", "> 100 µM", "> 100 µM"]

Need TGI for each of these molecules.
1. C/C(=C\c1ccn(-c2ccc(N)cc2)n1)[C@@H]1C[C@@H]2O[C@]2(C)CCC[C@H](C)[C@H](O)[C@@H](C)C(=O)C(C)(C)[C@@H](O)CC(=O)O1
2. COc1ccccc1N1C(=O)/C(=C\c2cc(OC)c(OC)c(OC)c2)S(=O)(=O)C1c1ccccc1 (stereo unspecified)
3. Cc1cc(NCC2CC/C(=C\C=C\c3ccccc3)C2=O)no1 (stereo unspecified)
4. Cc1ccc2[nH]c(=O)c(C(C#N)c3ccccc3)nc2c1 (stereo unspecified)
5. Cc1ccc(S(=O)(=O)n2cnc(CC(NC(=O)C3CCC(=O)N3C(=O)OCc3ccccc3)C(=O)N3CCCC3C(=O)NN)c2)cc1 (stereo unspecified)
6. Cn1cnc2c(NCc3ccccc3)nc(NCCO)nc21
7. CN=S(=O)(C[C@]1(O)CC2OC1C1OC(C)(C)OC21)c1ccccc1 (stereo partly specified)
8. CC(C)=CCC[C@@H](C)C1=C(Nc2ccccc2)C(O)=C(C)C(=O)C1=O

**Result**
1. > 50 µM
2. > 100 µM
3. > 100 µM
4. > 100 µM
5. > 100 µM
6. > 500 µM
7. > 100 µM
8. 13.4 µM

Batch: TGI for all items listed.
1. Clc1ccc(CO/N=C(\Cn2ccnc2)c2ccc(Cl)cc2Cl)c(Cl)c1
2. O=C(O)C(Br)Cc1ccc2c(c1)OCO2 (stereo unspecified)

**Result**
3.21 µM
> 100 µM
